Tested on: HMCB
methodDescription: COMPOUND A In Vitro Assay
Assay type: cell-based
conditionDetails: Homo sapiens, Skin, TP53 Mutant
quantityMeasured: pIC50
Formally, pIC50 is defined as -log10 of the concentration c, with c in mol/L.

Recorded result, CCOc1cc(C(C)(C)C)ccc1C1=N[C@@](C)(c2ccc(Cl)cc2)[C@@](C)(c2ccc(Cl)cc2)N1C(=O)N1CCN(CCCS(C)(=O)=O)CC1 , pIC50: 4.82

====

Test system: PC-1
methodDescription: COMPOUND A In Vitro Assay
Type: cell-based
conditionDetails: Homo sapiens, tissue null, TP53 Wild type
quantityMeasured: pIC50
# reply with the number alone; pIC50 is -log10 of concentration in mol/L

pIC50 reported for this compound CCOc1cc(C(C)(C)C)ccc1C1=N[C@@](C)(c2ccc(Cl)cc2)[C@@](C)(c2ccc(Cl)cc2)N1C(=O)N1CCN(CCCS(C)(=O)=O)CC1 : 5.89
